assay: Pharmacokinetics in mice after intragastric administration; format: in vivo; details: mouse, plasma, po, 100 mg/kg
assay.metric: k el
Please state the number and follow it with the unit.

Name the reported k el value associated with the molecule Nc1nc(-c2ccccc2)nc2[nH]nc(Nc3ccc(C(F)(F)F)cc3)c12 5e-05 s⁻¹

====

assay: Pharmacokinetics in mice after intragastric administration; format: in vivo; conditions: mouse, plasma, po, 100 mg/kg
assay.metric: AUC(0-t) (ng·h/mL)
Give bare numbers, in ng·h/mL.

Name the reported AUC(0-t) value associated with the molecule Nc1nc(-c2ccccc2)nc2[nH]nc(Nc3ccc(C(F)(F)F)cc3)c12 [Compound 36] 6420

====

system: 46 RV serotypes and 14 EV strains; assay: CPE inhibition assays in HeLa cells, panel of 60 RV and EV strains; type: cell-based, rhinovirus, enterovirus; conditions: Enterovirus, HeLa, read-out: IC50 values for high-level pleconaril-resistant viruses
pIC50: −log10 of the molar value.
assay.metric: pIC50

Name the reported pIC50 value associated with the compound Nc1nc(-c2ccccc2)nc2[nH]nc(Nc3ccc(C(F)(F)F)cc3)c12 6.19 to 7.40

====

assay: Pharmacokinetics in mice after intragastric administration; format: in vivo; settings: mouse, plasma, po, 100 mg/kg
assay.metric: Tmax

Name the reported Tmax value associated with the molecule Nc1nc(-c2ccccc2)nc2[nH]nc(Nc3ccc(C(F)(F)F)cc3)c12 3 h
